- system: Histamine H3 receptor (Homo sapiens)
- Sequence (Q9Y5N1 whole entry): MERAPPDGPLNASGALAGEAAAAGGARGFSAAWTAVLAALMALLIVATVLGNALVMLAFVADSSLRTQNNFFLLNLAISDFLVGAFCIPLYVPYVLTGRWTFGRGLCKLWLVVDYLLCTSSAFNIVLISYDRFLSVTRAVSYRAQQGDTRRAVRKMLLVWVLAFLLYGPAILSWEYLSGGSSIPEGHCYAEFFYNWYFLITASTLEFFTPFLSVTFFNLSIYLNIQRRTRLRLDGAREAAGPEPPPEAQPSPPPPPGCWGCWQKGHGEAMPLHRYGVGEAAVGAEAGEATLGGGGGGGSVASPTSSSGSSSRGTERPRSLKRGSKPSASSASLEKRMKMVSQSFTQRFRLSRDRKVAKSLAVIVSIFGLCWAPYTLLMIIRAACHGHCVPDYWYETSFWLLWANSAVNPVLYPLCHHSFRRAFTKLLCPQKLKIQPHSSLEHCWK
- protocol_description: Binding affinity for human recombinant H3 receptor
recorded_metric: pKi
Note on units: pKi is unitless, being -log10 of a concentration expressed in mol/L.

Fill blank: measured pKi of the molecule CC1CCCN1C(=O)c1ccc(-c2ccc(OCCCN3[C@@H](C)CC[C@@H]3C)cc2)cc1 (stereo not given in full) is ____.
9.11

Fill blank: measured pKi of the molecule `C[C@H]1CC[C@H](C)N1CCCOc1ccc(-c2ccc(C(=O)N3CCCC3)cc2)cc1` is ____.
9.16

Fill blank: measured pKi of the molecule `O=C(c1ccc(-c2ccc(OCCCN3CCOCC3)cc2)cc1)N1CCCC1` is ____.
7.39

Fill blank: measured pKi of the molecule `CC(C)NC(=O)c1ccc(-c2ccc(OCCCN3CCOCC3)cc2)cc1` is ____.
7.41

Fill blank: measured pKi of the molecule `CN(C)[C@@H]1CCN(CCCOc2ccc(-c3ccc(C(=O)N4CCCC4)cc3)cc2)C1` is ____.
8.54

Fill blank: measured pKi of the molecule `CC(C)NC(=O)c1ccc(-c2ccc(OCCCN3[C@@H](C)CC[C@@H]3C)cc2)cc1` is ____.
9.07

Fill blank: measured pKi of the molecule CCN(CC)CCCOc1ccc(-c2ccc(C(=O)N3CCCC3C)cc2)cc1 (stereo not given) is ____.
8.67

Fill blank: measured pKi of the molecule `CCN(CC)CCCOc1ccc(-c2ccc(C(=O)N3CCC(C)CC3)cc2)cc1` is ____.
8.46

Fill blank: measured pKi of the molecule `CCN(CC)CCCOc1ccc(-c2ccc(C(=O)N3[C@@H](C)CC[C@@H]3C)cc2)cc1` is ____.
8.29

Fill blank: measured pKi of the molecule `C[C@H]1CC[C@H](C)N1C(=O)c1ccc(-c2ccc(OCCCN3CCOCC3)cc2)cc1` is ____.
7.43
